Measured IC50 accompanies every entry in the list below.
Tested on: L. donovani-infected THP-1 macrophages, intracellular amastigote imaging
Assay: antileishmanial activity in infected THP-1 macrophages – imaging, THP-1 host macrophages, host toxicity (AID 1159564)
Conditions: measured here: THP-1 host cell toxicity

Solved entries:
Compound: CCCn1c(NC(=O)CCn2cc(Br)cn2)nc2ccccc21
IC50: > 50 µM
--
Compound: CC1=C(C(=O)Nc2ccc(Cl)cc2)C(c2ccncc2)n2ncc(C(=O)Nc3ccccc3)c2N1 (stereo not given)
IC50: 13 µM
--
Compound: O=C(N[C@H](CO)c1ccccc1)c1ccc(-c2c[nH]c3nccc(C(F)(F)F)c23)s1
IC50: 13 µM

Challenge: # get_value(readout= IC50, system= L. donovani-infected THP-1 macrophages, intracellular amastigote imaging) for CN(Cc1nnnn1C1CCN(Cc2ccc(-n3ccnc3)cc2)CC1)c1ccc(F)cc1F
Response given: > 50 µM

* * *

Measured IC50 accompanies every entry in the list below.
Test system: L. donovani-infected THP-1 macrophages, intracellular amastigote imaging
Test: antileishmanial activity in infected THP-1 macrophages – imaging, THP-1 host macrophages, host toxicity (AID 1159564)
Conditions: measured here: THP-1 host cell toxicity
Could you give me the number in µM? Just the number is fine.

Solved entries:
Compound: COc1ccc(S(=O)(=O)NCc2ccc(-c3ccc(CN(C)CCO)cc3)cc2)cc1
Assay target: L. donovani-infected THP-1 macrophages, intracellular amastigote imaging
Readout type: IC50
Reported measurement: 20

Compound: Fc1ccc(OC2CC(NCc3cccc4cn[nH]c34)C2)cc1C(F)(F)F (stereo not given)
Assay target: L. donovani-infected THP-1 macrophages, intracellular amastigote imaging
Readout type: IC50
Reported measurement: 10

Please examine the following record next.
Challenge: What value of IC50 has been recorded for this entry: CN(C)S(=O)(=O)c1ccc(Cl)c(C(=O)Nc2nc(-c3ccccn3)cs2)c1
Response given: 6.3

* * *

Measured IC50 accompanies every entry in the list below.
Tested on: L. donovani-infected THP-1 macrophages, intracellular amastigote imaging
Assay: antileishmanial activity in infected THP-1 macrophages – imaging, THP-1 host macrophages, host toxicity (AID 1159564)
Conditions: measured here: THP-1 host cell toxicity

Molecule: O=C(Nc1ccc(C(=O)N2CCCC2c2ccc3c(c2)OCCCO3)cc1)c1ccco1 (stereo unspecified)
IC50: > 50 µM
//
Molecule: O=C(NCCCn1cnc2ccccc21)c1ccc(NC(=O)c2ccco2)cc1
IC50: > 50 µM
//
Molecule: CS(=O)(=O)c1ccc(Nc2nccc(Nc3n[nH]c4ccc(F)cc34)n2)c(F)c1
IC50: 16 µM
//
Molecule: Cc1ccc2sc(NC(=O)Cn3cnc([N+](=O)[O-])n3)nc2c1
IC50: > 50 µM
//
Molecule: COc1ccc(-c2cnc(NC(=O)c3cc(-c4ccccn4)n[nH]3)n2C)cc1
IC50: > 50 µM
//
Molecule: COc1ccc(C(=O)Nc2cc(C(F)(F)F)ccc2N2CCOCC2)c(OC)c1
IC50: 13 µM
//
Molecule: O=S(=O)(NCC(c1cccnc1)N1CCN(c2ccc(F)cc2)CC1)c1cccs1 (stereo unspecified)
IC50: > 50 µM
//
Molecule: Cc1cc(N(C)C)nc2ccc(Cc3cnc(N)nc3N)cc12
IC50: 40 µM
//
Molecule: c1cncc(CN(Cc2ccco2)Cc2cn[nH]c2-c2cccs2)c1
IC50: 20 µM
//
Molecule: COc1ccc(C)cc1-c1csc(NC(=O)C(C)n2ccnc2)n1 (stereo unspecified)
IC50: > 50 µM

Please examine the following record next.
Challenge: What value of IC50 has been recorded for this entry: O=C(NCC1CCCCC1)c1cnns1
Response given: > 50 µM

Where these numbers come from: PubChem BioAssay AID1159564
